- Target Under Test: GST-KH (Bicc1 KH domains)
- Sequence (Q99MQ1 whole entry, looked up): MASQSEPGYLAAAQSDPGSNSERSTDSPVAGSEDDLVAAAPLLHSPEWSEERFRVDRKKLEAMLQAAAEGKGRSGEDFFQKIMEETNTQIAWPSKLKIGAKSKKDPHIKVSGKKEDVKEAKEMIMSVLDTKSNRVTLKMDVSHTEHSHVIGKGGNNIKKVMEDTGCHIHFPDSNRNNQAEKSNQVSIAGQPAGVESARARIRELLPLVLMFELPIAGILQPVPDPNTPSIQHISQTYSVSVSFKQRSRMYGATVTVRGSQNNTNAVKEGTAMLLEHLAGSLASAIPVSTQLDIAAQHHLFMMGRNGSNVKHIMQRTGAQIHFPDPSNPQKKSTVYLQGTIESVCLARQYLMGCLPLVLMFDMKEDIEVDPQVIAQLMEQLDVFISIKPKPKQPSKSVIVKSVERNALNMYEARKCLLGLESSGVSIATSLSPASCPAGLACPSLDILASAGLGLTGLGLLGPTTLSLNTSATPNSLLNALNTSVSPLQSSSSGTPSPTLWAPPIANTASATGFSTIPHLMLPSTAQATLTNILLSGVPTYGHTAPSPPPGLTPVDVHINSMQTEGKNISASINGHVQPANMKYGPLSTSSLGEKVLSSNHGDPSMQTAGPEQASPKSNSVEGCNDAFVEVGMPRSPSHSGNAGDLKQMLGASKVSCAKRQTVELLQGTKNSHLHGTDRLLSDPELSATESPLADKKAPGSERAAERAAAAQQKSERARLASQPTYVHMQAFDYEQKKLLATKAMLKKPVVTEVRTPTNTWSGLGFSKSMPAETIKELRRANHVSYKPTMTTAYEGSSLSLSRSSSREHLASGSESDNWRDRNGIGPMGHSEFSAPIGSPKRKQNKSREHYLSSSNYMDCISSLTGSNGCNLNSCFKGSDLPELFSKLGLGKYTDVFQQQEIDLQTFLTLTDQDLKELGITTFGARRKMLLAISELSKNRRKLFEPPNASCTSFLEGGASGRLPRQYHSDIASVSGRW
- Protocol: competition
- Test Conditions: EMSA buffer 1X: 10 mM Tris-HCl pH 8.0, 100 mM KCl, 2.5 mM MgCl2, 2.5% glycerol (slightly below 1X in some mixes); about 1 mM DTT, 0.05 ug/uL yeast tRNA; 50 nM …
pIC50: −log10 of the molar value.
Measurement Kind: pIC50

The sequence GAAGAAAAAGGUGACCUGAAUGAUGUGCAUCGGGUCAAGAGAGCAGAA [Dand5 3'UTR66-110 Mut untagged competitor] showed pIC50 equal to < 6.00
